Assay: Oral bioavailability in rat liver
Assay type: ADME, organism-based
readout-label: bioavailability (%)
Express it in %; write the number only.

Ask | Give the measured bioavailability of CC(C)(C)OC(=O)N[C@H]1CCCCC/C=C\[C@@H]2C[C@@]2(C(=O)NS(=O)(=O)C2CC2)NC(=O)[C@@H]2C[C@@H](OC(=O)N3Cc4cccc(F)c4C3)CN2C1=O .
Reply | 15

###

Test: AUC (0 to 24 hrs) in Sprague-Dawley rat plasma at 30 mg/kg, po by HPLC-MS/MS analysis
Assay type: ADME, organism-based
Design: time < 24 hr, dose 30 mg/kg, route oral
Please respond with reported AUC(0-t) at 24 h for every item in the list.
Express it in ng·h/mL; write the number only.

Ask | Give the measured AUC(0-t) at 24 h of CC(C)(C)OC(=O)N[C@H]1CCCCC/C=C\[C@@H]2C[C@@]2(C(=O)NS(=O)(=O)C2CC2)NC(=O)[C@@H]2C[C@@H](OC(=O)N3Cc4ccccc4C3)CN2C1=O .
Reply | 32900

Ask | Give the measured AUC(0-t) at 24 h of CC(C)(C)OC(=O)N[C@H]1CCCCC/C=C\[C@@H]2C[C@@]2(C(=O)NS(=O)(=O)C2CC2)NC(=O)[C@@H]2C[C@@H](OC(=O)N3Cc4cccc(F)c4C3)CN2C1=O .
Reply | 9500

Ask | Give the measured AUC(0-t) at 24 h of CN(C)S(=O)(=O)NC(=O)[C@@]12C[C@H]1/C=C\CCCCC[C@H](NC(=O)OC(C)(C)C)C(=O)N1C[C@H](OC(=O)N3Cc4ccccc4C3)C[C@H]1C(=O)N2 .
Reply | 1030

Ask | Give the measured AUC(0-t) at 24 h of CC(C)(C)OC(=O)N[C@H]1CCCCC/C=C\[C@@H]2C[C@@]2(C(=O)NS(=O)(=O)C2CC2)NC(=O)[C@@H]2C[C@@H](OC(=O)N3CCc4ccccc4C3)CN2C1=O .
Reply | 60

###

Please respond with reported pIC50 for every item in the list.
Assay: Inhibition of Hepatitis C virus full-length NS3/4A protease assessed as quenched-fluorogenic RET-S1 substrate cleavage incubated for 10 mins prior to substrate addition by FRET analysis
Design: species or system Hepacivirus hominis
To interpret pIC50, take it as minus log10 of a concentration measured in moles per litre.

Ask | Give the measured pIC50 of CC(C)(C)OC(=O)N[C@H]1CCCCC/C=C\[C@@H]2C[C@@]2(C(=O)NS(=O)(=O)C2CC2)NC(=O)[C@@H]2C[C@@H](OC(=O)N3Cc4ccc(N5CCOCC5)cc4C3)CN2C1=O .
Reply | 9.10

Ask | Give the measured pIC50 of CC(C)(C)OC(=O)N[C@H]1CCCCC/C=C\[C@@H]2C[C@@]2(C(=O)NS(=O)(=O)N2CCC2)NC(=O)[C@@H]2C[C@@H](OC(=O)N3Cc4ccccc4C3)CN2C1=O .
Reply | 8.62

Ask | Give the measured pIC50 of CC(C)(C)OC(=O)N[C@H]1CCCCC/C=C\[C@@H]2C[C@@]2(C(=O)NS(=O)(=O)c2ccc(Cl)cc2)NC(=O)[C@@H]2C[C@@H](OC(=O)N3Cc4ccccc4C3)CN2C1=O .
Reply | 8.52

###

Test: Inhibition of Hepatitis C virus full-length NS3/4A protease assessed as quenched-fluorogenic RET-S1 substrate cleavage incubated for 10 mins prior to substrate addition by FRET analysis
Parameters: species or system Hepacivirus hominis
readout-label: IC50 (nM)
Express it in nM; write the number only.

Ask | Give the measured IC50 of CC(C)(C)OC(=O)N[C@H]1CCCCC/C=C\[C@@H]2C[C@@]2(C(=O)NS(=O)(=O)C(C)(C)C)NC(=O)[C@@H]2C[C@@H](OC(=O)N3Cc4ccccc4C3)CN2C1=O .
Reply | 37

Ask | Give the measured IC50 of COc1ccc(S(=O)(=O)NC(=O)[C@@]23C[C@H]2/C=C\CCCCC[C@H](NC(=O)OC(C)(C)C)C(=O)N2C[C@H](OC(=O)N4Cc5ccccc5C4)C[C@H]2C(=O)N3)cc1 .
Reply | 4.1

Ask | Give the measured IC50 of CC(C)(C)OC(=O)N[C@H]1CCCOCCC[C@@H]2C[C@@]2(C(=O)NS(=O)(=O)C2CC2)NC(=O)[C@@H]2C[C@@H](OC(=O)N3Cc4cccc(F)c4C3)CN2C1=O .
Reply | 1

Ask | Give the measured IC50 of CC(C)(C)OC(=O)N[C@H]1CCCCC/C=C\[C@@H]2C[C@@]2(C(=O)NS(=O)(=O)C2CC2)NC(=O)[C@@H]2C[C@@H](NC(=O)N3CCc4ccccc4C3)CN2C1=O .
Reply | 2.9

Ask | Give the measured IC50 of CC(C)(C)OC(=O)N[C@H]1CCCCC/C=C\[C@@H]2C[C@@]2(C(=O)NS(=O)(=O)C2CC2)NC(=O)[C@@H]2C[C@@H](OC(=O)N3CCc4cc(C(F)(F)F)ccc4C3)CN2C1=O .
Reply | 2.6

Ask | Give the measured IC50 of CC(C)(C)OC(=O)N[C@H]1CCCCC/C=C\[C@@H]2C[C@@]2(C(=O)NS(=O)(=O)C2(C)CC2)NC(=O)[C@@H]2C[C@@H](OC(=O)N3Cc4ccccc4C3)CN2C1=O .
Reply | 0.5

###

Please respond with reported IC50 for every item in the list.
Experiment: Inhibition of Hepatitis C virus full-length NS3/4A protease assessed as quenched-fluorogenic RET-S1 substrate cleavage incubated for 10 mins prior to substrate addition by FRET analysis
Parameters: species or system Hepacivirus hominis
*1 amine or outer side, *2 acyl side, *3 side chain or, on linkers, in order; H or OH if unused. Where a SMILES comes first, the peptide text is derived from it. Side-chain parts run from the residue outwards. [ ]: non-standard residue; d: D form. The star is where a group is joined. Ac3c(1R,2S-2-vinyl) = C=C[C@@H]1C[C@]1(N)C(=O)O; Hyp = O=C(O)[C@@H]1C[C@@H](O)CN1; Chg = N[C@H](C(=O)O)C1CCCCC1; X4 = c1ccc(C2COCCN2*)cc1; X1 = c1ccc2c(c1)CCN2*; CO = O=C([*:1])[*:2]
Form field: result (number plus unit)

Ask | Give the measured IC50 of CC1CN(C(=O)O[C@@H]2C[C@H]3C(=O)N[C@]4(C(=O)NS(=O)(=O)C5CC5)C[C@H]4/C=C\CCCCC[C@H](NC(=O)OC(C)(C)C)C(=O)N3C2)Cc2ccccc21 (some centres undefined) .
Reply | 1 nM

Ask | Give the measured IC50 of CC(C)(C)OC(=O)N[C@H]1CCCCC/C=C\[C@@H]2C[C@@]2(C(=O)NS(=O)(=O)C2CC2)NC(=O)[C@@H]2C[C@@H](NS(=O)(=O)c3cccc4ccccc34)CN2C1=O .
Reply | 470 nM

Ask | Give the measured IC50 of C=C[C@@H]1C[C@]1(NC(=O)[C@@H]1C[C@@H](OC(=O)N2CCc3ccccc32)CN1C(=O)[C@@H](NC(=O)[C@@H](NC(C)=O)C1CCCCC1)C(C)C)C(=O)O (Ac-[Chg]V[Hyp]([CO-X1])[Ac3c(1R,2S-2-vinyl)]-OH) .
Reply | 200 nM

Ask | Give the measured IC50 of C=C[C@@H]1C[C@]1(NC(=O)[C@@H]1C[C@@H](OC(=O)N2CCOCC2c2ccccc2)CN1C(=O)[C@@H](NC(=O)[C@@H](NC(C)=O)C1CCCCC1)C(C)C)C(=O)O (stereo partly drawn) (Ac-[Chg]V[Hyp]([CO-X4])[Ac3c(1R,2S-2-vinyl)]-OH) .
Reply | 5500 nM
